Molecular target: L1196M mutant ALK kinase (Homo sapiens, UniProt Q9UM73, L1196M)
Sequence (Q9UM73 19-1620 L1196M): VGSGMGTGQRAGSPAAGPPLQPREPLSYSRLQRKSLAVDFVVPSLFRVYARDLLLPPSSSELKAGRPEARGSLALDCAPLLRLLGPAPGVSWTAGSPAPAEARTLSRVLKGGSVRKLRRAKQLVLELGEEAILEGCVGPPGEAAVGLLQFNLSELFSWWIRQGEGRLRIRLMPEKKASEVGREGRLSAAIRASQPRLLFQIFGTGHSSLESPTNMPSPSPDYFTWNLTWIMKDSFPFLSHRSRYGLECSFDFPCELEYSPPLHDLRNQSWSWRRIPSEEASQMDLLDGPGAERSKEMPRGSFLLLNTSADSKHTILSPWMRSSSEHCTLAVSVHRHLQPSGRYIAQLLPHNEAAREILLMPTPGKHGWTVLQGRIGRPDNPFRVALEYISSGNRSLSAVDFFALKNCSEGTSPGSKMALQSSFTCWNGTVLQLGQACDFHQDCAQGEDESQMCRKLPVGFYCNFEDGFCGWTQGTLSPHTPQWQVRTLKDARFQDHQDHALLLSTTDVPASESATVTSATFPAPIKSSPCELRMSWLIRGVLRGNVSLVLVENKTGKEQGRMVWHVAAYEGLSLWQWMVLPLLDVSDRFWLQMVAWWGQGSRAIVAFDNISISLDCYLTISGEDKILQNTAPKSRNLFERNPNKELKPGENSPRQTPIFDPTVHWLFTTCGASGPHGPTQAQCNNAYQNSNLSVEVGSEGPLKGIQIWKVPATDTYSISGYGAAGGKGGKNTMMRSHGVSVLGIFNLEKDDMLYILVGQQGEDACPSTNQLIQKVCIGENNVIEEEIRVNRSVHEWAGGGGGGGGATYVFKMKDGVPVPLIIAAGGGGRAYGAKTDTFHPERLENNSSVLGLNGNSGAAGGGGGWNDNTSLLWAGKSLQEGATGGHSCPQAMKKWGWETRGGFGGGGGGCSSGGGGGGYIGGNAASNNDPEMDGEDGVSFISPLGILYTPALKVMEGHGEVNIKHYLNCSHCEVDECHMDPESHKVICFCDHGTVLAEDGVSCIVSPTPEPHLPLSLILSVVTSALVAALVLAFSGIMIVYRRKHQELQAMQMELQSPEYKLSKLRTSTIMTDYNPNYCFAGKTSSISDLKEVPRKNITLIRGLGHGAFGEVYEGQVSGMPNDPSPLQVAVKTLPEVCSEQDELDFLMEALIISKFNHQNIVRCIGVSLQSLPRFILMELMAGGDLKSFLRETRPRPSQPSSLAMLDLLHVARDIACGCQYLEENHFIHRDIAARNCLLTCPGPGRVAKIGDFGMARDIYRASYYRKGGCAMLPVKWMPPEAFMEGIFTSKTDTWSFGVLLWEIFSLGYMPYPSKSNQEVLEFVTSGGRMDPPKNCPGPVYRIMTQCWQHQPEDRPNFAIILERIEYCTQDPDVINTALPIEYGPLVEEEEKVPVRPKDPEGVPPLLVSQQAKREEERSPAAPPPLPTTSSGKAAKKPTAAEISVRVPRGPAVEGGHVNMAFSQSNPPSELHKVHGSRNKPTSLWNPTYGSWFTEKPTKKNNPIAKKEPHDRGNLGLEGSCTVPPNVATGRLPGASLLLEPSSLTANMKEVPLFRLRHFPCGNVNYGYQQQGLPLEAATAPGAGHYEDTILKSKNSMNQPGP
Test: HTRF KinEASE-TK assay, inhibitory activity on L1196M mutant ALK kinase
Conditions: L1196M mutant ALK 1 ng/μl, substrate 1 μM, ATP 5 μM, 30° C. 35 minutes, read-out: Inhibition on ALK kinases (L1196M mutant), IC50
REPORTED_METRIC: IC50 (µM)

// known answers, use as guide
line_notation=Cc1cc(Nc2ncc(Cl)c(Nc3cn(C)nc3S(=O)(=O)C(C)C)n2)c(OC2CC2)cc1C1CCN(CCO)CC1 units_text=µM observed_result=0.006
line_notation=Cc1cc(Nc2ncc(Cl)c(Nc3cn(C)nc3S(=O)(=O)C(C)C)n2)c(OCC2CC2)cc1C1CCN(C)CC1 units_text=µM observed_result=0.048

P: Cc1cc(Nc2ncc(Cl)c(Nc3cn(C)nc3S(=O)(=O)C(C)C)n2)c(OC(F)(F)F)cc1C1CCN(C)CC1
Q: CC(C)S(=O)(=O)c1nn(C2CC2)cc1Nc1nc(Nc2ccc(C3CCN(S(C)(=O)=O)CC3)cc2OC2CC2)ncc1Cl
q: Could you please tell me which of these two has the higher IC50: P or Q ? // caller expects the label of the chosen entry
a: Q
(Q: 0.028 µM, P: 0.01 µM)

Hello, the source for this data is patent US10023593B2, in case you need it.
